Sourced from paper PMC3243944

# experiment: Solubility in aqueous buffer
# Format: physicochemical
Where no end group is shown, it is not given here.
outcome_measure: solubility

1) ISQVNEKINQSLAFIRKSDE [C20]    < 2000 µg/mL
